- protocol details: qHTS of pediatric cancer cell lines to identify multiple opportunities for drug repurposing: Confirmatory screen for SK-N-SH cells (AID 1347129);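 also: cells exposed to compound for 48 h before viability read; nearly all actives have a fitted effect of over 60% in size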
- condition info: SK-N-SH neuroblastoma cell viability; series mostly up to 46.1 µM
Results filed as inconclusive are left out. Active and inactive are the calls of the source. Calls follow the shape of the dose curve; as a rule, active = well fitted cell-killing curve with a large enough effect; inconclusive = small, poorly fitted or top-dose-only effect; inactive = flat fitted curve, though single readings scatter.
Outcome codes: TRUE = active, FALSE = inactive

| compound | class label |
| --- | --- |
| CO[C@H]1CCC(O[C@H]2C[C@H]([C@]3(C)CC[C@]4(C[C@H](O)[C@@H](C)[C@@H]([C@@H](C)C=C(C)C(=O)[C@H](C)C[C@H](C)C(=O)O)O4)O3)O[C@]3(O[C@@H]([C@H]4O[C@@](O)(CO)[C@H](C)C[C@H]4C)C[C@H]3C)[C@H]2C)O[C@H]1C (some centres not stated) | TRUE |
| CCCCCC[C@H]1C(=O)O[C@H](C)[C@H](NC(=O)c2cccc(NC=O)c2O)C(=O)O[C@@H](C)[C@@H]1OC(=O)CC(C)C | TRUE |
| C=CCON=C(C[C@H]1O[C@@H]2O[C@]3(C)CC[C@@H]4[C@H](C)CC[C@@H]([C@H]1C)[C@@]24OO3)[C@H]1O[C@@H]2O[C@]3(C)CC[C@H]4[C@H](C)CC[C@@H]([C@@H]1C)[C@@]24OO3 | FALSE |
| O=C(O)COc1nc(Cl)c(Cl)cc1Cl | FALSE |
| COc1ccc(C(=O)c2c(C)n(CCN3CCOCC3)c3cc(I)ccc23)cc1 | FALSE |
| O=C1C(I)=CC(=C(c2cc(I)c(O)c(I)c2)c2ccccc2C(=O)O)C=C1I | FALSE |
| Cc1[nH]nc2ccc(-c3cncc(OC[C@@H](N)Cc4c[nH]c5ccccc45)c3)cc12 | TRUE |
| CC1=C(O)C(=O)C=C2C1=CC=C1[C@@]2(C)CC[C@@]2(C)[C@@H]3C[C@](C)(C(=O)O)CC[C@]3(C)CC[C@]12C | TRUE |
| C[C@]12Cc3cn[nH]c3C[C@@H]1CC[C@@H]1[C@H]2CC[C@@]2(C)[C@H]1CC[C@]2(C)O | FALSE |
| CC(C)[C@]12O[C@@H]1[C@@H]1O[C@]13[C@]1(O[C@H]1C[C@@H]1C4=C(CC[C@@]13C)C(=O)OC4)[C@H]2O | TRUE |
| CC(=O)[O][Hg][c]1ccccc1 | TRUE |
| CS(=O)(=O)c1ccc(C(=O)C2C(=O)CCCC2=O)c([N+](=O)[O-])c1 | FALSE |
